Molecular target: Neuronal acetylcholine receptor; alpha3/beta4 (Rattus norvegicus, UniProt P04757+P12392)
Sequence (P04757 whole entry): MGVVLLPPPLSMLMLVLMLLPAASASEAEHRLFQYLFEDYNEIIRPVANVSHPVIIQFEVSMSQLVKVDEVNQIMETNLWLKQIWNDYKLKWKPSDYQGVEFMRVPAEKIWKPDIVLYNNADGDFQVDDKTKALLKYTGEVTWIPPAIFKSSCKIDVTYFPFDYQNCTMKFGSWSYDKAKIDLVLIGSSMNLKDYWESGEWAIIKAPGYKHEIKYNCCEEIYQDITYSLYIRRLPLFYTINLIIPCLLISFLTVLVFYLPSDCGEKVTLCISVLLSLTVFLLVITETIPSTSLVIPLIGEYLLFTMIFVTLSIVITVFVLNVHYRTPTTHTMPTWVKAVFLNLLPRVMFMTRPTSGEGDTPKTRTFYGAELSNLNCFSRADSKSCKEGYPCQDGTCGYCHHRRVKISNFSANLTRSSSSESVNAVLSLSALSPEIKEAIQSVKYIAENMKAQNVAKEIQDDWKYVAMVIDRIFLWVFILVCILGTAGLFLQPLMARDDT
Sequence (P12392 whole entry): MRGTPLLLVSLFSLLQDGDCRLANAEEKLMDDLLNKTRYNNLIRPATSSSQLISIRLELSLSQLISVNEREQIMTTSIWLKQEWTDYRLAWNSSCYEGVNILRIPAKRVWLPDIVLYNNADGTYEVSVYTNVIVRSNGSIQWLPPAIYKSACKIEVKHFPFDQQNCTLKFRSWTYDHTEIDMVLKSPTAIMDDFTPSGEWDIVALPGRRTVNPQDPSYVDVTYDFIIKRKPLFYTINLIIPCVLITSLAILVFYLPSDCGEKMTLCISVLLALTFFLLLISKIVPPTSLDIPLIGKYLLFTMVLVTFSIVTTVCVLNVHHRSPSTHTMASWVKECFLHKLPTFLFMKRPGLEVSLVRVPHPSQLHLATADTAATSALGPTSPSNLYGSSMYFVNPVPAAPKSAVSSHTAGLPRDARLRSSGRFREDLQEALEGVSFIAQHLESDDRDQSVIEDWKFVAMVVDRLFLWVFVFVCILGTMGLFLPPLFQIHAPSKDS
Assay: Antagonist activity at rat alpha3beta4 nAChR expressed in Xenopus laevis oocytes assessed as inhibition of Ach-induced response at -70 mV holding potential incubated for 5 mins by voltage-clamp assay
Where a SMILES comes first, the peptide text is derived from it. Bridges are numbered along the chain shown (N, C = ends).
measured-property: IC50

CC[C@H](C)[C@@H]1NC(=O)[C@H](CCC(=O)O)NC(=O)[C@@H]2CCCN2C(=O)[C@H](Cc2cnc[nH]2)NC(=O)[C@H](CC(=O)O)NC(=O)[C@H](C(C)C)NC(=O)[C@H]([C@@H](C)CC)NC(=O)[C@@H]2CSSC[C@H](NC(=O)CN)C(=O)N[C@@H](CSSC[C@@H](C(N)=O)NC1=O)C(=O)N[C@@H](CO)C(=O)N[C@@H](Cc1cnc[nH]1)C(=O)N1CCC[C@H]1C(=O)N[C@@H](C)C(=O)N2 (H-GCCSHPACIVDHPEIC-NH2; disulfide 2-8, 3-16)	5.56 µM
CC[C@H](C)[C@@H]1NC(=O)[C@H](CCC(=O)O)NC(=O)[C@@H]2CCCN2C(=O)[C@H](C)NC(=O)[C@H](CC(=O)O)NC(=O)[C@H](C(C)C)NC(=O)[C@H](CC(N)=O)NC(=O)[C@@H]2CSSC[C@H](NC(=O)CN)C(=O)N[C@@H](CSSC[C@@H](C(N)=O)NC1=O)C(=O)N[C@@H](CO)C(=O)N[C@@H](Cc1cnc[nH]1)C(=O)N1CCC[C@H]1C(=O)N[C@@H](C)C(=O)N2 (H-GCCSHPACNVDAPEIC-NH2; disulfide 2-8, 3-16)	> 10 µM
CC[C@H](C)[C@@H]1NC(=O)[C@H](CCC(=O)O)NC(=O)[C@@H]2CCCN2C(=O)[C@H](Cc2cnc[nH]2)NC(=O)[C@H](CC(=O)O)NC(=O)[C@H](C(C)C)NC(=O)CNC(=O)[C@@H]2CSSC[C@H](NC(=O)CN)C(=O)N[C@@H](CSSC[C@@H](C(N)=O)NC1=O)C(=O)N[C@@H](CO)C(=O)N[C@@H](Cc1cnc[nH]1)C(=O)N1CCC[C@H]1C(=O)N[C@@H](C)C(=O)N2 (H-GCCSHPACGVDHPEIC-NH2; disulfide 2-8, 3-16)	> 10 µM
CC(C)[C@@H]1NC(=O)[C@H](CC(N)=O)NC(=O)[C@@H]2CSSC[C@H](NC(=O)CN)C(=O)N[C@@H](CSSC[C@@H](C(N)=O)NC(=O)[C@H](C)NC(=O)[C@H](CCC(=O)O)NC(=O)[C@@H]3CCCN3C(=O)[C@H](Cc3cnc[nH]3)NC(=O)[C@H](CC(=O)O)NC1=O)C(=O)N[C@@H](CO)C(=O)N[C@@H](Cc1cnc[nH]1)C(=O)N1CCC[C@H]1C(=O)N[C@@H](C)C(=O)N2 (H-GCCSHPACNVDHPEAC-NH2; disulfide 2-8, 3-16)	1.4 µM
CC[C@H](C)[C@@H]1NC(=O)[C@H](C)NC(=O)[C@@H]2CCCN2C(=O)[C@H](Cc2cnc[nH]2)NC(=O)[C@H](CC(=O)O)NC(=O)[C@H](C(C)C)NC(=O)[C@H](CC(N)=O)NC(=O)[C@@H]2CSSC[C@H](NC(=O)CN)C(=O)N[C@@H](CSSC[C@@H](C(N)=O)NC1=O)C(=O)N[C@@H](CO)C(=O)N[C@@H](Cc1cnc[nH]1)C(=O)N1CCC[C@H]1C(=O)N[C@@H](C)C(=O)N2 (H-GCCSHPACNVDHPAIC-NH2; disulfide 2-8, 3-16)	0.181 µM
